target_under_test: αS fibrils (Homo sapiens, UniProt P37840)
Let's look at some molecules and their measured pKd.
The meaning of pKd here: minus log10 of the concentration in molar units.

1. Cc1ccc(OCC(=O)Nc2cc(-c3ccc(I)cc3)no2)cc1C [Compound 61]: 9.00

Next molecule, pKd to be filled in.
Write down the reported pKd of Cc1ccc(OCC(=O)Nc2cc(-c3ccc([125I])cc3)no2)cc1C [[^125I]61] , test system: αS fibrils (Homo sapiens, UniProt P37840). 8.97

* * *

# pIC50 values compiled below
target_under_test: αS fibrils, Site 9 ([^3H]BF2846) (Homo sapiens)
procedure_details: Competition binding assay with Site 9 radioligand [^3H]BF2846 on αS fibrils
conditions: αS fibrils 50 nM, [^3H]BF2846 3 nM, 1 h 37 °C; 95% confidence intervals in parentheses (n = 3)
pIC50: −log10 of the molar value.

1) COc1ccc(OCC(=O)Nc2cc(-c3ccc(F)c(F)c3)no2)cc1: < 6.00
2) Cc1ccc(OCC(=O)Nc2cc(-c3ccccc3)no2)cc1C: < 6.00

Next:
# get_value(readout='pIC50', item= Cc1ccc(OCC(=O)Nc2cc(-c3ccc(F)c(F)c3)no2)cc1C ) < 6.00
